Parameter kinase still bound, per cent of control: see the listing below.
Target: PTK2B (human)
Test: KINOMEscan competition binding
Conditions: compound 10.0 µM

COMPOUND: COc1cc(N2CCC(O)CC2)ccc1Nc1ncc2c(n1)N(c1ccccc1)CCC(=O)N2C
kinase still bound, per cent of control / %: 22
--
COMPOUND: O=C1NC(=O)/C(=C/c2c[nH]c(=O)c(-c3ccc(N4CCNCC4)nc3)c2)S1
kinase still bound, per cent of control / %: 100
--
COMPOUND: COc1cc(N2CCN(C)CC2)ccc1Nc1ncc2c(n1)Nc1ccccc1NC2=O
kinase still bound, per cent of control / %: 99
--
COMPOUND: CN1CCN(c2ccc(C(=O)Nc3ncc4c(n3)N(C)c3ccccc3C(=O)N4C)cc2)CC1
kinase still bound, per cent of control / %: 100
--
COMPOUND: COc1cc(N(C)CCCO)ccc1Nc1ncc2c(n1)N(C1CCCC1)CCC(=O)N2C
kinase still bound, per cent of control / %: 29
--
COMPOUND: COc1cc(N2CCN(C)CC2)ccc1Nc1ncc2c(n1)N(C)c1ccccc1N(C)C2=O
kinase still bound, per cent of control / %: 100
--
COMPOUND: COc1cc(N2CCC(C)(O)CC2)ccc1Nc1ncc2c(n1)N(C1CCCC1)CCC(=O)N2C
kinase still bound, per cent of control / %: 3.1
--
COMPOUND: COc1cc(N2CCN(CCO)CC2)ccc1Nc1ncc2c(n1)N(C1CCCC1)CCC(=O)N2C
kinase still bound, per cent of control / %: 13
--
COMPOUND: COc1cc(C(=O)NC2CCN(C)CC2)ccc1Nc1ncc2c(n1)N(C1CCCC1)CCC(=O)N2C
kinase still bound, per cent of control / %: 26
--
COMPOUND: COc1cc(C(=O)NC2CCN(C)CC2)ccc1Nc1ncc2c(n1)N(CCc1ccccc1)CCC(=O)N2C
kinase still bound, per cent of control / %: 17
--
COMPOUND: COc1cc(N2CCC(N3CCN(C)CC3)CC2)ccc1Nc1ncc2c(n1)N(C1CCCC1)C(C)CC(=O)N2C (stereo not drawn)
kinase still bound, per cent of control / %: 4.2
--
COMPOUND: COc1cc(N2CCC(O)CC2)ccc1Nc1ncc2c(n1)N(C)c1ccccc1C(=O)N2C
kinase still bound, per cent of control / %: 29
--
COMPOUND: CN1C(=O)c2ccccc2N(C)c2nc(NS(=O)(=O)c3ccc(N)cc3)ncc21
kinase still bound, per cent of control / %: 100
--
COMPOUND: COc1cc(N2CCC(N3CCN(C)CC3)CC2)ccc1Nc1ncc2c(n1)N(C1CCCC1)C(C)CC(=O)N2 (stereo not drawn)
kinase still bound, per cent of control / %: 23
--
COMPOUND: CN1C(=O)c2ccccc2N(C)c2nc(Nc3ccc(N4CCC(O)CC4)cc3)ncc21
kinase still bound, per cent of control / %: 78
--
COMPOUND: COc1cc(N2CCC(O)CC2)ccc1Nc1ncc2c(n1)N(C1CCCC1)CCC(=O)N2C
kinase still bound, per cent of control / %: 18
--
COMPOUND: COc1cc(N2CCC(O)CC2)ccc1Nc1ncc2c(n1)N1CCc3cccc(c31)C(=O)N2C
kinase still bound, per cent of control / %: 57
--
COMPOUND: COc1cc(C(=O)NC2CCN(C)CC2)ccc1Nc1ncc2c(n1)N(C1CCC(O)CC1)CCC(=O)N2C (stereo not drawn)
kinase still bound, per cent of control / %: 12
--
COMPOUND: COc1cc(N2CCN(C)CC2)ccc1Nc1ncc2c(n1)N(C1CCCC1)C(C)CC(=O)N2C (stereo not drawn)
kinase still bound, per cent of control / %: 4.6
--
COMPOUND: CCN1C(=O)CC(C(C)C)N(C2CCCC2)c2nc(Nc3ccc(C(=O)NC4CCN(C)CC4)cc3OC)ncc21 (stereo not drawn)
kinase still bound, per cent of control / %: 34
--
COMPOUND: COc1cc(C(=O)NC2CCN(C)CC2)ccc1Nc1ncc2c(n1)N(C1CCCC1)C(C)CC(=O)N2C (stereo not drawn)
kinase still bound, per cent of control / %: 13
--
COMPOUND: COc1cc(N2CCN(C)CC2)ccc1Nc1ncc2c(n1)N(C)c1sccc1C(=O)N2C
kinase still bound, per cent of control / %: 88
--
COMPOUND: COc1cc(N2CCN(C)CC2)ccc1Nc1ncc2c(n1)N(C1CCCC1)C(C)CC(=O)N2 (stereo not drawn)
kinase still bound, per cent of control / %: 13

----------
Reported kinase still bound, per cent of control values for a set of compounds
Biological target: GAK (human)
Assay: KINOMEscan competition binding
Conditions: compound 10.0 µM
QUANTITY_NAME: kinase still bound, per cent of control

COMPOUND: COc1cc(C(=O)NC2CCN(C)CC2)ccc1Nc1ncc2c(n1)N(C1CCCC1)C(C)CC(=O)N2C (stereo unspecified)
QUANTITY_NAME: kinase still bound, per cent of control
READING: 3.8%
--
COMPOUND: N=C1NC(=O)/C(=C/c2ccc(-c3ccc(F)cc3O)o2)S1
QUANTITY_NAME: kinase still bound, per cent of control
READING: 7.6%
--
COMPOUND: Cc1cn(-c2cc(NC(=O)c3cccc4cc(-c5ccc(/C=C6\SC(=N)NC6=O)o5)ccc34)cc(C(F)(F)F)c2)cn1
QUANTITY_NAME: kinase still bound, per cent of control
READING: 28%
--
COMPOUND: O=C1NC(=O)/C(=C/c2c[nH]c(=O)c(-c3ccc(N4CCNCC4)nc3)c2)S1
QUANTITY_NAME: kinase still bound, per cent of control
READING: 3.2%
--
COMPOUND: NS(=O)(=O)c1ccc(-c2ccc(/C=C3\SC(=S)N(CC(=O)O)C3=O)o2)cc1
QUANTITY_NAME: kinase still bound, per cent of control
READING: 20%
--
COMPOUND: CCN1C(=O)CCN(C2CCCC2)c2nc(Nc3ccc(N4CCC(O)CC4)cn3)ncc21
QUANTITY_NAME: kinase still bound, per cent of control
READING: 16%
--
COMPOUND: COc1cc(N(C)CCO)ccc1Nc1ncc2c(n1)N(C1CCCC1)CCC(=O)N2C
QUANTITY_NAME: kinase still bound, per cent of control
READING: 2.4%
--
COMPOUND: N=C1NC(=O)/C(=C/c2ccc(-c3ccc(C(N)=O)cc3O)o2)S1
QUANTITY_NAME: kinase still bound, per cent of control
READING: 6.6%
--
COMPOUND: COc1cc(N2CCC(C)(O)CC2)ccc1Nc1ncc2c(n1)N(C1CCCC1)CCC(=O)N2C
QUANTITY_NAME: kinase still bound, per cent of control
READING: 1.2%
--
COMPOUND: COc1cc(C(=O)NC2CCC(O)CC2)ccc1Nc1ncc2c(n1)N(C1CCCC1)[C@@H]1CCC[C@@H]1C(=O)N2C (stereo partly specified)
QUANTITY_NAME: kinase still bound, per cent of control
READING: 28%
--
COMPOUND: CN1C(=O)[C@H]2CCC[C@H]2N(C2CCCC2)c2nc(Nc3ccc(C(N)=O)cc3)ncc21
QUANTITY_NAME: kinase still bound, per cent of control
READING: 15%
--
COMPOUND: N=C1NC(=O)/C(=C/c2ccc(-c3cccc4cc[nH]c34)o2)S1
QUANTITY_NAME: kinase still bound, per cent of control
READING: 5%
--
COMPOUND: COc1cc(N2CCN(C)CC2)ccc1Nc1ncc2c(n1)N(C(C)C)c1ccccc1C(=O)N2
QUANTITY_NAME: kinase still bound, per cent of control
READING: 2%
--
COMPOUND: COc1cc(C(N)=O)ccc1Nc1ncc2c(n1)N(C1CCCC1)[C@@H]1CCC[C@@H]1C(=O)N2C
QUANTITY_NAME: kinase still bound, per cent of control
READING: 33%
--
COMPOUND: O=C1NC(=O)/C(=C/c2ccc(-c3ccc(C(=O)Nc4ccc(N5CCNCC5)cc4)cc3)o2)S1
QUANTITY_NAME: kinase still bound, per cent of control
READING: 26%
--
COMPOUND: O=C1NC(=S)S/C1=C\c1ccc(-c2cncc3ccccc23)o1
QUANTITY_NAME: kinase still bound, per cent of control
READING: 1.3%
--
COMPOUND: COc1cc(C(=O)NC2CCN(C)CC2)ccc1Nc1ncc2c(n1)N(C1CCC(O)CC1)CCC(=O)N2C (stereo unspecified)
QUANTITY_NAME: kinase still bound, per cent of control
READING: 2.7%
--
COMPOUND: COc1cc(C(=O)NC2CCN(C)CC2)ccc1Nc1ncc2c(n1)N(CCc1ccccc1)CCC(=O)N2C
QUANTITY_NAME: kinase still bound, per cent of control
READING: 6.4%
--
COMPOUND: COc1cc(N2CCN(C)CC2)ccc1Nc1ncc2c(n1)N1CCC[C@H]1CC(=O)N2C
QUANTITY_NAME: kinase still bound, per cent of control
READING: 6.2%
--
COMPOUND: COc1cc(N2CCN(C)CC2)ccc1Nc1ncc2c(n1)N(C1CCCC1)C(C)CC(=O)N2 (stereo unspecified)
QUANTITY_NAME: kinase still bound, per cent of control
READING: 1%
--
COMPOUND: N=C1NC(=O)/C(=C/c2ccc(-c3cnc4ccccc4c3)o2)S1
QUANTITY_NAME: kinase still bound, per cent of control
READING: 2.6%
